experimental system: T1, TCE-14 (anti-CD3 scFv F104A; anti-TROP2 wt)
T1 construct: scFv on the Fab heavy chain; also called TCE-14 (F104A)
measurement notes: competition ELISA, TCE on captured CD3
Where no end group is shown, it is not given here.
endpoint name: IC50 (nM)

Use these answered entries as a reference point.
binder: VYCGPEFDESVGCA (cysteine pairing not given here; also: biotinylated, site not given here, mask peptide for the CD3 scFv) [Peptide-73]
uom: nM
obs value: 200
//
binder: GSACLGPEWEVCPY (cysteine pairing not given here; also: biotinylated, site not given here, mask peptide for the CD3 scFv) [Peptide-75]
uom: nM
obs value: 4210
//
binder: YLCGPDGDETLACY (cysteine pairing not given here; also: biotinylated, site not given here, mask peptide for the CD3 scFv) [Peptide-70]
uom: nM
obs value: 180

a. DWCWYSPDNDGLCD (cysteine pairing not given here; also: biotinylated, site not given here, mask peptide for the CD3 scFv) [Peptide-68]
b. AYCGPEFDESVGCM (cysteine pairing not given here; also: biotinylated, site not given here, mask peptide for the CD3 scFv) [Peptide-72]
Query: Please state the entry with greater IC50 among a and b . Respond with the label that goes with your answer.
Reply: a
(a: 1080 nM, b: 320 nM)

These measurements were taken from patent US20230357429A1.
